system name: Potassium voltage-gated channel subfamily A member 3 (Homo sapiens)
Sequence (P22001 whole entry): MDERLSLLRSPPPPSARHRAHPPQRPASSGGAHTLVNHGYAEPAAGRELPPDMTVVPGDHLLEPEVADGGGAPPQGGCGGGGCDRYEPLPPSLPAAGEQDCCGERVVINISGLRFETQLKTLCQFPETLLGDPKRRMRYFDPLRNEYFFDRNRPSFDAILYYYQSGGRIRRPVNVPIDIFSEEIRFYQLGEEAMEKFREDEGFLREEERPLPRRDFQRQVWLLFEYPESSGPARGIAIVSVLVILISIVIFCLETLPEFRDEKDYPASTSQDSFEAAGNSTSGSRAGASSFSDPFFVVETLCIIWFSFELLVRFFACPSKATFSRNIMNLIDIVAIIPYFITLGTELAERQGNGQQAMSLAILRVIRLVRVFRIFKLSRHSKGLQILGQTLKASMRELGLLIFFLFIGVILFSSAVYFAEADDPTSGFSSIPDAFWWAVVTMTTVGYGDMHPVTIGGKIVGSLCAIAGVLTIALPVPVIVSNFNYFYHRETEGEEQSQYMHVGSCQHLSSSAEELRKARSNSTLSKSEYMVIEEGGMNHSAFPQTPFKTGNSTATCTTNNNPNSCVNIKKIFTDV
experimental details: In vitro inhibition of human T-cells voltage-gated potassium channel subunit Kv1.3
value type: pIC50
# pIC50 is unitless: minus log10 of the molar concentration; print number only

# return recorded pIC50 for entry COc1ccc(CCCN2CCC(COC(c3ccccc3)c3ccccc3)CC2)cc1 6.70
